# target-entity: human CD36 (on HEK 293 or SCC25 cells) (human, UniProt P16671 2-472)
# Sequence (P16671 2-472 limits assumed): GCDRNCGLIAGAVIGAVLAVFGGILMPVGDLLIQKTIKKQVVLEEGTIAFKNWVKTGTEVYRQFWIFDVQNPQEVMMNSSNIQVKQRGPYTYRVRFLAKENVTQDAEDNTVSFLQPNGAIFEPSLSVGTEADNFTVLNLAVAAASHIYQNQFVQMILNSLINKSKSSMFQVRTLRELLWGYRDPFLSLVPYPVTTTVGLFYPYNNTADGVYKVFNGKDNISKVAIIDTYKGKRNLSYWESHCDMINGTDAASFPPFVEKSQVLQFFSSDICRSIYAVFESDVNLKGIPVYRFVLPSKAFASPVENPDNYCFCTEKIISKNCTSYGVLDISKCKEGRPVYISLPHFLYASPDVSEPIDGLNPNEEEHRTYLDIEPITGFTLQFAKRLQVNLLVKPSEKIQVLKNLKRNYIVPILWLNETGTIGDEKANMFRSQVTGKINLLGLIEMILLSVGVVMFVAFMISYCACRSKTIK
# assay-name: cell-based or functional assay
Quick rule for you: Percent Fatty Acid Uptake Inhibition under 50% gets True, anything else gets False.

For 13G04 (antibody, human IgG1, V domains shown, Chimeric: mouse variable regions on human IgG1 LALA (L234A/L235A); also called 013G04) VH: QVQLQQSGAELVRPGASVKLSCKASGYTFTSYWMNWVKQRPGQGLEWIGMIDPSDNETHYNQMFKDKATLTVDKSSSTAYMQLSSLTSEDSAVYYCARSDYGNGYSFYLDVWGAGTTVTVSS VL: DIVLTQSPASLAVSLGQRATISCRASESVDSYGNSFMHWYQQKPGQPPKLLIYRASNLESGIPARFSGSGSRTDFTLTINPVEADDVATYYCQQSNEDPWTFGGGTKLEIK , is the recorded Percent Fatty Acid Uptake Inhibition below the cut-off of 50%?
False

Could you please tell me whether Percent Fatty Acid Uptake Inhibition recorded for 19G04 (antibody, human IgG1, V domains shown, Chimeric: mouse variable regions on human IgG1 LALA (L234A/L235A); also called 019G04) VH: EVQLQQSGPELVKPGASVKISCETSGHTFTEYTMHWVKQSHGKSLEWIGGIYPNNGATKYNQKFKGKATLTVDKSSSTAYMELRSLTSEDSAVYYCARDRYDVWFAYWGQGTLVTVSA VL: ETTVTQSPASLSMAIGEKVTIRCITSTDIDDDMNWYQQKPGEPPKLLISEGNTLRPGVPSRFSSSGYGTDFIFTIENMLSEDVADYYCLQSDNLPLTFGAGTKLELK is less than 50%?
False

Strictly below 50%: is that where Percent Fatty Acid Uptake Inhibition of 9G04 (antibody, human IgG1, V domains shown, Chimeric: mouse variable regions on human IgG1 LALA (L234A/L235A); also called 09G04; 009G04) VH: QVQLQQSGAELVRPGASVTLSCKASGYTFTDYEMHWVKQTPVHGLEWIGTVDPETGGTAFNQKFKDKASLTADKSSSTVYMELRSLTSEDSAVYYCSRGYGNYGAWFAYWGQGTLVTVSA VL: ETTVTQSPASLSVATGEKVTIRCITSTDIDDDMNWYQQKPGEPPKLLISEGNTLRPGVPSRFSSSGYGTDFVFTIENMLSEDVADYYCLQSDNLPFTFGSGTKLEIK sits?
True

Percent Fatty Acid Uptake Inhibition under 50%? Item: 16G04 (antibody, human IgG1, V domains shown, Chimeric: mouse variable regions on human IgG1 LALA (L234A/L235A); also called 016G04) VH: EVQLQQSGPELVKPGASVKISCKTSGYTFTEYTMHWVKQSHGKSLEWIGGINPYNGGTAYNQKFKNKATLTVDISSNTAFMEFRSLTSEDSAVYYCASDYFYGDANPWFAYWGQGTLVTVSA VL: ETTVTQSPASLSMAIGEKVTIRCITSTDIDDDMNWYQQKPGEPPKLLISEGNTLRPGVPSRFSSSGYGTDFVFTIENMLSEDVADYYCLQSDNLPLTFGAGTKLELK
True

Bench note: check whether 30G04 (antibody, human IgG1, V domains shown, Chimeric: mouse variable regions on human IgG1 LALA (L234A/L235A); also called 030G04) VH: EVQLVESGGGVVQPGESLKLSCESNEYEFPSHDMSWVRKTPERRLELVAAINSDGAITYYPDTMERRFIISRDNTKKTLYLQMSSLKSEDTAMYYCARHGQTGTWFAYWGQGTLVTVSA VL: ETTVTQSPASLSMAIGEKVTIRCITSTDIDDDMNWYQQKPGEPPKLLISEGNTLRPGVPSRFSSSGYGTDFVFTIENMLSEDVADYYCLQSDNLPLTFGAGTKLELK shows Percent Fatty Acid Uptake Inhibition below 50%
True
